Experiment: pharmacokinetic evaluation in the rat
Assay type: in vivo, male Sprague-Dawley rats
Conditions: male, Sprague-Dawley, plasma, iv, 2 mg/kg, intravenous bolus 2 mg/kg, plasma clearance, read-out: CLp
Method: For determining the pharmacokinetic properties in rat, each HIV integrase inhibitor was dissolved in PEG400/normal saline (70:30 (v/v)) at a nominal concentration of 1 mg/ml and administered (2 ml/kg) to male Sprague-Dawley rats (n=3 per test compound) as an intravenous bolus via a saphenous vein at a dose level of 2 mg/kg. […] Plasma was obtained by centrifugation and stored at −20° C. prior to analysis. […]
readout: clearance (mL/min/kg)
// return numeric value only (unit: mL/min/kg, not printed)

Observe how each entry below is paired with its result.
CCN1C[C@@H](C)n2c(c(O)c3c(=O)n(Cc4ccc(F)c(Cl)c4)nc(N4CCN(C)S4(=O)=O)c32)C1=O [Compound 54r, reference compound]; 40
CCN1C[C@H](C)n2c(c(O)c3c(=O)n(Cc4ccc(F)cc4)nc(N(C)S(C)(=O)=O)c32)C1=O [Compound 53r, reference compound]; 75
CCN1C[C@H](C)n2c(c(O)c3c(=O)n4nc(c32)N(C)S(=O)(=O)CCCCOc2cc(F)ccc2C4)C1=O; 8
CCN1C[C@H](C)n2c(c(O)c3c(=O)n4nc(c32)C(=O)NCCCCCOc2cc(F)ccc2C4)C1=O; 6

Okay, next one:
Requested read-out: clearance. Entry: CCN1C[C@H](C)n2c(c(O)c3c(=O)n(Cc4ccc(F)c(Cl)c4)nc(C(=O)NC)c32)C1=O [Compound 52r, reference compound]
5
